Experiment: second pKa from 31P shift
Assay type: physicochemical
measure: pKa

Input line: Supply reported pKa belonging to this compound: NCCn1cc(P(=O)(O)O)cn1
Output line: ~6.7
